Provide the recorded remaining activity at 25 µM for the entries that follow.
biological target: E. coli CsgA (Escherichia coli); construct: made in house; host or cells: E. coli NEB 3016 slyD::kan, pET11d; assay: In vitro ThioflavinT assay of CsgA aggregation (CsgA ThT Assay); format: biochemical; settings: read-out: CsgA ThT Assay (10 μM CsgA) % Control AUC at 1005 minutes, 25 μM, mean AUC as % of DMSO control; CsgA 10 μM, black plates; compound 25 μM; 1005 minutes
Sequence (P28307 23-151): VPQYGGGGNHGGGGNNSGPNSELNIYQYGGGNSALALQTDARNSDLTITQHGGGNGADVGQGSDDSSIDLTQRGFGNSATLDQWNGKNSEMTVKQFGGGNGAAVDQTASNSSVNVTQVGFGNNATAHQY
Answers are plain numbers, in %.

For each of the molecules below, note its remaining activity at 25 µM.
1. CN(C)Cc1c(Cc2cccc3ccccc23)c(-c2cccc(C(F)(F)F)c2)c2n(c1=O)C(C(=O)O)CS2(=O)=O (stereo not shown)
2. O=C(O)c1c(Cc2ccccc2)sc2c(-c3cccc(C(F)(F)F)c3)c(Cc3cccc4ccccc34)cc(=O)n12
3. CCN1CC(C(=O)O)n2c(c(-c3cccc(C(F)(F)F)c3)c(Cc3cccc4ccccc34)cc2=O)S1(=O)=O (racemic) [Compound 015]
4. Nc1c(Cc2cccc3ccccc23)c(-c2cccc(C(F)(F)F)c2)c2n(c1=O)C(C(=O)O)CN(CCCO)S2(=O)=O (stereo not shown)
5. CN1CC(C(N)=O)n2c(c(-c3cccc(C(F)(F)F)c3)c(Cc3cccc4ccccc34)cc2=O)S1(=O)=O (stereo not shown)
6. O=C(O)C1CNc2c(-c3cccc(C(F)(F)F)c3)c(Cc3cccc4ccccc34)cc(=O)n21 (stereo not shown)
7. CC(=O)Nc1ccc(Cc2cc(=O)n3c(c2-c2cccc(C(F)(F)F)c2)S(=O)(=O)N(C)CC3C(=O)O)c2ccccc12 (stereo not shown)

[102, 91, 28, 63, 82, 80, 90]

###

Provide the recorded inhibition at 100 µM for the entries that follow.
biological target: human α-synuclein (Homo sapiens); construct: the full-length gene for untagged human α-synuclein was inserted; made in house; host or cells: E. coli BL21(DE3), plasmid derived from pT7 or pET11a; test: Cell-free Thioflavin T assay of α-synuclein aggregation (αSyn ThT Assay); type: biochemical; settings: αSyn 50 μM; compounds at 100 μM; class symbol; read-out: αSyn ThT Assay % Inhibition (activity range)

Known results for compounds:
CC1(C)Sc2c(-c3cccc(C(F)(F)F)c3)c(Cc3cccc4ccccc34)nc(=O)n2C1C(=O)O (stereo not shown); 31 to 60%
O=C(O)C1CN(CCCCO)S(=O)(=O)c2c(-c3cccc(C(F)(F)F)c3)c(Cc3cccc4ccccc34)c(NC3CCCC3)c(=O)n21 (stereo not shown); 11 to 30%
O=C(O)[C@@H]1CS(=O)(=O)c2c(-c3cccc(C(F)(F)F)c3)c(Cc3cccc4ccccc34)cc(=O)n21 (single isomer, unassigned) [Compound 010a]; 31 to 60%

Now take the following compound into account.
According to the records, this compound O=C(O)C1COc2c(-c3cccc(C(F)(F)F)c3)c(Cc3cccc4ccccc34)cc(=O)n21 (stereo not shown) displays inhibition at 100 µM of 31 to 60%

###

molecular target: E. coli CsgA (Escherichia coli); construct: made in house; host or cells: E. coli NEB 3016 slyD::kan, pET11d; assay: In vitro ThioflavinT assay of CsgA aggregation (CsgA ThT Assay); assay type: biochemical; settings: read-out: CsgA ThT Assay (10 μM CsgA) % Control AUC at 1005 minutes, 100 μM (activity range), CsgA 10 μM, black plates; compound 100 μM; 1005 minutes; class symbol
measure: remaining activity at 100 µM

O=C(O)C1CN(C[C@H](O)[C@@H](O)[C@H](O)[C@H](O)CO)S(=O)(=O)c2c(-c3cccc(C(F)(F)F)c3)c(Cc3cccc4ccccc34)cc(=O)n21 (mixture of isomers); 11 to 31%
Nc1c(Cc2cccc3ccccc23)c(-c2cccc(C(F)(F)F)c2)c2n(c1=O)C(C(=O)O)CN(CCCO)S2(=O)=O (stereo not drawn); 31 to 60%
Nc1c(Cc2cccc3ccccc23)c(-c2cccc(C(F)(F)F)c2)c2n(c1=O)C(C(=O)O)CS2 (single isomer, unassigned) [Compound 020a]; 11 to 31%
Cn1cc(C(=O)O)n2c(=O)cc(Cc3cccc4ccccc34)c(-c3cccc(C(F)(F)F)c3)c12; > 60%
CN1CC(C(=O)O)n2c(c(-c3cccc(C(F)(F)F)c3)c(Cc3cccc4ccccc34)c(NC3CCOCC3)c2=O)S1(=O)=O (stereo not drawn); < 10%

According to the records, this compound Nc1c(Cc2cccc3ccccc23)c(-c2cccc(C(F)(F)F)c2)c2n(c1=O)C(C(=O)O)CN(CCO)S2(=O)=O (stereo not drawn) displays remaining activity at 100 µM of 31 to 60%

###

biological target: E. coli CsgA (Escherichia coli); construct: made in house; host or cells: E. coli NEB 3016 slyD::kan, pET11d; assay: In vitro ThioflavinT assay of CsgA aggregation (CsgA ThT Assay); format: biochemical; conditions: read-out: CsgA ThT Assay (2 μM CsgA) % Control Bmax 100 μM, mean Bmax as percentage of DMSO control; CsgA 2 μM, white plates; compound 100 μM
measure: remaining activity at 100 µM (%)
Answers are plain numbers, in %.

Known results for compounds:
O=C(O)C1CN(Cc2ccccc2)c2c(-c3cccc(C(F)(F)F)c3)c(CN3CCCCC3)c(Cl)c(=O)n21 (stereo not shown); 109
O=C(O)[C@H]1CN(Cc2ccccc2)c2c(-c3cccc(C(F)(F)F)c3)c(Cc3cccc4ccccc34)c(Br)c(=O)n21 (single isomer, unassigned); 56

For each of the compounds below, note its remaining activity at 100 µM.
1. CCCCN1CC(C(=O)O)n2c(c(-c3cccc(C(F)(F)F)c3)c(Cc3cccc4ccccc34)c(C(N)=O)c2=O)S1(=O)=O (stereo not shown)
2. CC(C)CNC(=O)c1c(Cc2cccc3ccccc23)c(-c2cccc(C(F)(F)F)c2)c2n(c1=O)C(C(=O)O)CN(C)S2(=O)=O (stereo not shown)
3. CC(C)CN1CC(C(=O)O)n2c(c(-c3cccc(C(F)(F)F)c3)c(Cc3cccc4ccccc34)c(NC3CCCC3)c2=O)S1(=O)=O (stereo not shown)
4. O=C(O)[C@@H]1CN(Cc2ccccc2)c2c(-c3cccc(C(F)(F)F)c3)c(Cc3cccc4ccccc34)c(Cl)c(=O)n21 (single isomer, unassigned) [Compound 004a]
5. CCCN1CC(C(=O)O)n2c(c(-c3cccc(C(F)(F)F)c3)c(C(F)(F)c3cccc4ccccc34)cc2=O)S1(=O)=O (stereo not shown)
6. CCCN1CC(C(=O)O)n2c(c(-c3cccc(C(F)(F)F)c3)c(Cc3cccc4ccccc34)c(OC(C)C)c2=O)S1(=O)=O (stereo not shown)
7. O=C(O)C1CN(Cc2ccccc2)c2c(-c3cccc(C(F)(F)F)c3)c(Cc3ccccc3)c(Cl)c(=O)n21 (stereo not shown)

21
76
39
24
43
113
84

For each of the compounds below, note its remaining activity at 100 µM.
1. N#Cc1c(Cc2cccc3ccccc23)c(-c2cccc(C(F)(F)F)c2)c2n(c1=O)C(C(=O)O)CN2Cc1ccccc1 (stereo not shown)
2. O=C(O)C1CN(Cc2ccccc2)c2c(-c3cccc(C(F)(F)F)c3)c(Cc3cccc4ccncc34)c(Cl)c(=O)n21 (stereo not shown)
3. CN1CC(C(=O)O)n2c(c(-c3cccc(C(F)(F)F)c3)c(Cc3cccc4ccccc34)c(C(=O)N3CCCC3)c2=O)S1(=O)=O (stereo not shown)

1. 91
2. 44
3. 72

For each of the compounds below, note its remaining activity at 100 µM.
1. CN(C)C(=O)c1c(Cc2cccc3ccccc23)c(-c2cccc(C(F)(F)F)c2)c2n(c1=O)C(C(=O)O)CN(C)S2(=O)=O (stereo not shown)
2. CC(C)N1CC(C(=O)O)n2c(c(-c3cccc(C(F)(F)F)c3)c(Cc3cccc4ccccc34)c(C(N)=O)c2=O)S1(=O)=O (stereo not shown)
3. O=C(O)C1CN(Cc2ccccc2)c2c(-c3ccc(Br)cc3)c(Cc3cccc4ccccc34)c(Cl)c(=O)n21 (stereo not shown)
4. CC(C)(C)c1ccc(Cc2c(-c3cccc(C(F)(F)F)c3)c3n(c(=O)c2Cl)C(C(=O)O)CN3Cc2ccccc2)cc1 (stereo not shown)
5. CCCN1CC(C(=O)O)n2c(c(-c3cccc(C(F)(F)F)c3)c(Cc3cccc4ccccc34)c(N3CCCC3=O)c2=O)S1(=O)=O (stereo not shown)
6. NC(=O)c1c(Cc2cccc3ccccc23)c(-c2cccc(C(F)(F)F)c2)c2n(c1=O)C(C(=O)O)CN(CCCCO)S2(=O)=O (stereo not shown)
7. O=C(O)C1CN(CCC2CCCCC2)c2c(-c3cccc(C(F)(F)F)c3)c(Cc3cccc4ccccc34)c(Cl)c(=O)n21 (stereo not shown)
8. O=C(O)C1CN(Cc2ccccc2)c2c(-c3cccc(C(F)(F)F)c3)c(Cc3cccc4ccccc34)c(F)c(=O)n21 (stereo not shown)

1: 40; 2: 24; 3: 35; 4: 55; 5: 73; 6: 26; 7: 20; 8: 67

For each of the compounds below, note its remaining activity at 100 µM.
1. NC(=O)c1c(Cc2cccc3ccccc23)c(-c2cccc(C(F)(F)F)c2)c2n(c1=O)C(C(=O)O)CN(CCCO)S2(=O)=O (stereo not shown)
2. O=C(O)C1CN(CC2CCCC2)S(=O)(=O)c2c(-c3cccc(C(F)(F)F)c3)c(Cc3cccc4ccccc34)c(NC3CCCC3)c(=O)n21 (stereo not shown)

1. 22
2. 137
